test.name: ATG_PXRE_CIS: Attagene CIS-FACTORIAL HepG2 Assay for human Pregnane X Receptor Element (PXRE) (AID 2282957)
applied.conditions: HepG2 Attagene CIS-FACTORIAL PXRE reporter, mRNA; actives raise or lower the signal
Calls of active or inactive are those of the source. Rule for the calls: active = hit-call score of the fitted dose curve at least 0.9, where 1 is the maximum; inactive = score below 0.9.
Classes used: Y (active), N (inactive)

# chemical.string, category.label
records = [
    ("C=CC(F)(F)C(F)(F)C(F)(F)C(F)(F)C(F)(F)C(F)(F)C(F)(F)C(F)(F)F", "N"),
    ("c1ccc(-c2ccccc2-c2ccccc2)cc1", "Y"),
    ("N=C(N)C(F)(F)C(F)(F)C(F)(F)C(F)(F)C(F)(F)C(F)(F)C(F)(F)F", "N"),
    ("O=C(O)C(F)(F)C(F)(F)C(F)(F)C(F)(F)C(F)(F)C(F)(F)C(F)(F)C(F)(F)C(F)(F)C(F)(F)C(F)(F)C(F)(F)F", "N"),
    ("COC(=O)CCC(F)(F)C(F)(F)C(F)(F)C(F)(F)F", "N"),
]
